molecular target: mUSP18 (Mus musculus); construct: (46-368); His-tag (N); made in house; experiment: High-throughput screening, ISG15ct-RhoMP, single dose 1.25 µM; type: biochemical, murine; details: mUSP18 %inhibition; carboxylic acid (CA) building block alone; read-out: %inh CA only
reported metric: inhibition at 1.25 µM (%)

Some molecules with recorded inhibition at 1.25 µM:
CC(=O)CCC(=O)O [CA056]    -7.82
O=C(O)C1(c2ccccc2Cl)CCOCC1 [CA178]    4.04
O=C(O)c1cccc(-c2cnco2)c1 [CA208]    3.78
O=C(O)c1ccc(-c2ccccn2)s1 [CA341]    0.41
O=C(O)Cc1ccc(-n2cccc2)cc1 [CA391]    -10.9

P: COc1ccc(C(=O)O)cc1S(=O)(=O)NCCCN1CCOCC1 [CA326]
Q: O=C(O)C1CCN(C(=O)c2ccc(Cl)s2)CC1 [CA350]
R: O=C(O)c1cccc(Oc2ccc(Cl)cc2)n1 [CA394]
S: Cc1nc(-c2ccco2)ccc1C(=O)O [CA331]
Request: # ascending order, key=inhibition at 1.25 µM Give the order by naming the labels one after another as requested.
Result: R, P, Q, S
(R: -5.76%, P: -1.48%, Q: -0.76%, S: 7.93%)

1: O=C(O)c1coc(C#Cc2ccccc2)c1 [CA393]
2: Cc1ccc(-c2cc(C(=O)O)[nH]n2)o1 [CA205]
3: N#CCC(=O)O [CA070]
4: O=C(O)CC1(Cn2cnnn2)CCCCC1 [CA317]
Request: Arrange items by their inhibition at 1.25 µM values in increasing order. State the ranking by listing the labels in the requested order.
Result: 3, 1, 2, 4
(3: -5.36%, 1: -1.56%, 2: 0.0344%, 4: 3.86%)

###

Molecular target: mUSP18 (Mus musculus)
Construct: (46-368); His-tag (N); made in house
Sequence (Q9WTV6 46-368): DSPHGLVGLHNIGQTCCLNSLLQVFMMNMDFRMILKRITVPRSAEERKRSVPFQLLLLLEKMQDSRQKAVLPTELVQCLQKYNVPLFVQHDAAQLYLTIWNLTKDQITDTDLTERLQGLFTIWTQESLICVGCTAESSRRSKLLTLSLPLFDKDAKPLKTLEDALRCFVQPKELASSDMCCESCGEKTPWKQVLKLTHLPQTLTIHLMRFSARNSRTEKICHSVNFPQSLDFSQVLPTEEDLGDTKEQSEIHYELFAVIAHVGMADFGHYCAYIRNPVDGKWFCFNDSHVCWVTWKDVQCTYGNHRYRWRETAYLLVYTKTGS
Experiment: High-throughput screening, ISG15ct-RhoMP, single dose 1.25 µM
Format: biochemical, murine
Settings: mUSP18 %inhibition; carboxylic acid (CA) building block alone; read-out: %inh CA only
reported metric: inhibition at 1.25 µM (%)

Below: 5 molecules and their reported inhibition at 1.25 µM.
Cc1nc(CN2CCCC2C(=O)O)no1 (stereo not shown)    2.84
O=C(O)c1cnoc1-c1cccs1    12.4
O=C(O)c1noc(-c2cccc(Cl)c2)n1    8.46
O=C1CCC(=O)N(c2ccc(C(=O)O)cc2)N1    -2.74
CC(=O)N1CCC(C(=O)O)CC1    -2.57

P: O=C(O)c1cnn(-c2ccccc2)n1
Q: O=C(O)C1CC2C=CC1O2 (stereo not shown)
R: O=C(O)c1cnnn1-c1ccccc1Cl
S: O=C(O)CCn1nc(C(F)(F)F)cc1C1CC1
Request: Please order the records by their reported inhibition at 1.25 µM, lowest number first. Return the labels ranked in the requested order, please.
Result: S, P, Q, R
(S: -5.69%, P: 2.74%, Q: 5.65%, R: 10.7%)

P: O=C(O)c1cc([N+](=O)[O-])ccc1Br
Q: O=C(O)C1(c2cccs2)CC1
R: O=C(O)[1C@@H]1C[1C@H]1c1ccco1
Request: Highest inhibition at 1.25 µM first, then in falling order down to the smallest. Answer with the labels in sequence, matching the requested order.
Result: R, Q, P

###

target: mUSP18 (Mus musculus); construct: (46-368); His-tag (N); made in house; experiment: High-throughput screening, ISG15ct-RhoMP, single dose 1.25 µM; type: biochemical, murine; settings: mUSP18 %inhibition; carboxylic acid (CA) building block alone
reported metric: %inh CA only (%)

Cc1ccc(Br)c(C(=O)O)c1 [CA053]    -8.05
O=C(O)c1cnccn1 [CA081]    -6.50
O=C(O)c1cnccn1 [CA015]    -1.35
Cc1ccc(Br)c(C(=O)O)c1 [CA033]    -2.06

a: CN1C(=O)C[C@@H](C(=O)O)[C@@H]1c1cccnc1 [CA306]
b: CN1C(=O)C[C@@H](C(=O)O)[C@@H]1c1cccnc1 [CA042]
Request: Returns: the argument ( a or b ) having the larger %inh CA only. Response format: the label of the selected entry.
Result: a

###

Target: UCHL3 (Homo sapiens)
Construct: (1-230); made in house
Sequence (P15374 1-230): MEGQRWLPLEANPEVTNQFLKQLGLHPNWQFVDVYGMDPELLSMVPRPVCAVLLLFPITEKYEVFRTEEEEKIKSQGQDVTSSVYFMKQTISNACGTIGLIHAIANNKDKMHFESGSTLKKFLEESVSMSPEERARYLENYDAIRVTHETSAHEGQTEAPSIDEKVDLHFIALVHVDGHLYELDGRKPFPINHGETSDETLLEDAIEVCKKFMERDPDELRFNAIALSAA
Test: High-throughput screening, Ub-RhoMP, single dose 1.25 µM
Type: biochemical
Details: crude in-plate synthesized compound, 1.25 µM assuming full conversion
reported metric: %inhibition UCHL3 (%)

N#CN1CC[C@@H](NC(=O)c2ncoc2-c2cccs2)C1 [BB01CA94]    16.0
N#CN1CC[C@@H](NC(=O)C(Cc2c[nH]cn2)NS(=O)(=O)c2ccc(Cl)cc2)C1 (some centres unmarked) [BB01CA91]    16.3
N#CN1CC[C@@H](NC(=O)Cc2csc(-c3cnccn3)n2)C1 [BB01CA92]    17.1
N#CN1CC[C@@H](NC(=O)CCN(Cc2ccccc2)S(=O)(=O)c2c(Cl)cccc2Cl)C1 [BB01CA93]    16.3
N#CN1CC[C@@H](NC(=O)c2nc(N3CCCC3)ncc2Cl)C1 [BB01CA90]    19.3

###

target: mUSP18 (Mus musculus, UniProt Q9WTV6); construct: (46-368); His-tag (N); made in house; assay: High-throughput screening, ISG15ct-RhoMP, single dose 1.25 µM; type: biochemical, murine; conditions: mUSP18 %inhibition; carboxylic acid (CA) with coupling reagents DIC/HOBT; read-out: %inh CA + DIC/HOBT
reported metric: inhibition at 1.25 µM (%)

Cc1cncc(C(=O)O)c1 [CA010]    -11.3

1: O=C(O)Cc1cnn(-c2ccccc2)c1 [CA232]
2: O=C(O)c1ccc(-c2ncon2)cc1 [CA461]
Request: Lab log: flag the item ( 1 or 2 ) with the smaller inhibition at 1.25 µM figure. Please reply using the label of the selected record.
Result: 2

###

molecular target: mUSP18 (Mus musculus, UniProt Q9WTV6); construct: (46-368); His-tag (N); made in house; assay: High-throughput screening, ISG15ct-RhoMP, single dose 1.25 µM; type: biochemical, murine; settings: mUSP18 %inhibition; carboxylic acid (CA) with coupling reagents DIC/HOBT; read-out: %inh CA + DIC/HOBT
reported metric: inhibition at 1.25 µM (%)

Please review the entries below; each comes with its answer.
O=C(O)Cc1csc(C2CC2)n1    -7.57
CC1CCN(c2ncc(C(=O)O)s2)CC1    13.4
O=C(O)c1cc(S(=O)(=O)NCCCN2CCCC2=O)ccc1Cl    3.56
O=C(O)C(Cc1ccccc1)N1CCCOC1=O (stereo not drawn)    -1.08
O=C(O)C1CC(OCc2ccccc2)C1 (stereo not drawn)    8.14
O=C(O)c1ccc(Cn2ccccc2=O)o1    -5.91
Cc1onc(C(=O)O)c1CN1CCOCC1    1.01
CNc1ccc(C(=O)O)cc1    -19.1

1: Cc1ccc(S(=O)(=O)N[C@@H](Cc2ccccc2)C(=O)O)cc1
2: Cn1cc(S(=O)(=O)N2CCOCC2)cc1C(=O)O
Request: Hi team, can someone confirm which has the larger inhibition at 1.25 µM: 1 or 2 ? Thanks. Use the label to indicate which entry you chose.
Result: 2
(2: 1.03%, 1: -0.72%)

I: O=C(O)C1CCN(S(=O)(=O)N2CCCCC2)CC1
II: O=Cc1cccc(C(=O)O)c1
Request: Quick check, higher inhibition at 1.25 µM between I and II ? Write the label of whichever entry you select.
Result: I

###

Biological target: USP8 (Homo sapiens)
Construct: (1-1118); purchased Ubiquigent 64-0053-050
Sequence (P40818 1-1118): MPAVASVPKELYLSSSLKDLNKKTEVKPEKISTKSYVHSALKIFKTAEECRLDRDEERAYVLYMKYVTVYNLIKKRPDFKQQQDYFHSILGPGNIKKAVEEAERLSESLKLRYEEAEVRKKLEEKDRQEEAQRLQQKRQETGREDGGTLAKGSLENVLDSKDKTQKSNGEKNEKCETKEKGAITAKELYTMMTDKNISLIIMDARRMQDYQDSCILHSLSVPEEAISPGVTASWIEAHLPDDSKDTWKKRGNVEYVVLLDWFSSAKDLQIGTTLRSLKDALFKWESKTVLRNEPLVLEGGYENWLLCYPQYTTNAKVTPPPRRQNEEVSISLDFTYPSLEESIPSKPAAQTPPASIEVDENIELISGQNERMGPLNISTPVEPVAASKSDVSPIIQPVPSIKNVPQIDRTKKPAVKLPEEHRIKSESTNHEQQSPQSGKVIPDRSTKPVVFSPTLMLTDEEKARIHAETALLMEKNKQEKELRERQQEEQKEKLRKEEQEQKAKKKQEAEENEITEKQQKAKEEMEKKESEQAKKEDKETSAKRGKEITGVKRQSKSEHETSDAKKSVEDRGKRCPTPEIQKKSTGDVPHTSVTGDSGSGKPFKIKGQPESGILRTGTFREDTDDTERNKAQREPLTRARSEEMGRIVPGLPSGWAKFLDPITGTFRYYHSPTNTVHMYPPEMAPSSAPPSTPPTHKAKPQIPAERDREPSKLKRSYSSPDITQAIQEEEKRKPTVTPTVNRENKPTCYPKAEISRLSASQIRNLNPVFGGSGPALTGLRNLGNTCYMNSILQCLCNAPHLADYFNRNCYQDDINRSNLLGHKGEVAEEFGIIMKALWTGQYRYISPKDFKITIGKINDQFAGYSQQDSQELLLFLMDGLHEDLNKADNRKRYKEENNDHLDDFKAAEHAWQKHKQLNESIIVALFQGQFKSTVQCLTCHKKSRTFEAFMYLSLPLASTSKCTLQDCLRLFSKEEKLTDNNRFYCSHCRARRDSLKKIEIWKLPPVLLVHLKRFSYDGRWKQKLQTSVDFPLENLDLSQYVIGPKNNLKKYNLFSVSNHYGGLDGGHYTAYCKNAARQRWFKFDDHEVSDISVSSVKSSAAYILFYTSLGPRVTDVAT
Experiment: High-throughput screening, Ub-RhoMP, single dose 1.25 µM
Type: biochemical
Conditions: individual amine building block (plate NCN-5)
reported metric: BB %inhibition USP8 (%)

See these solved cases before continuing.
N#CN1CC[C@H](C(=O)Nc2nc3c(s2)CNCC3)C1    0.105
N#CN1C[C@H](N)[C@@H](O)C1    0.0
N#CN1C[C@@H](F)[C@@H](N)C1    2.7
N#CN1CCC[C@H](N)C1    1.5
N#CN1CCC2(CCNC2)C1 (stereo not shown)    7.8

a: N#CN1CCC(N)CC1
b: N#CN1CC(N)C1
Request: Looking only at measured BB %inhibition USP8, which entry is lower, a or b ? Response format: the label of the selected entry.
Result: a
(a: 1.0%, b: 1.7%)
